Target: Prostaglandin G/H synthase 2 (Homo sapiens, UniProt P35354)
Sequence (P35354 whole entry): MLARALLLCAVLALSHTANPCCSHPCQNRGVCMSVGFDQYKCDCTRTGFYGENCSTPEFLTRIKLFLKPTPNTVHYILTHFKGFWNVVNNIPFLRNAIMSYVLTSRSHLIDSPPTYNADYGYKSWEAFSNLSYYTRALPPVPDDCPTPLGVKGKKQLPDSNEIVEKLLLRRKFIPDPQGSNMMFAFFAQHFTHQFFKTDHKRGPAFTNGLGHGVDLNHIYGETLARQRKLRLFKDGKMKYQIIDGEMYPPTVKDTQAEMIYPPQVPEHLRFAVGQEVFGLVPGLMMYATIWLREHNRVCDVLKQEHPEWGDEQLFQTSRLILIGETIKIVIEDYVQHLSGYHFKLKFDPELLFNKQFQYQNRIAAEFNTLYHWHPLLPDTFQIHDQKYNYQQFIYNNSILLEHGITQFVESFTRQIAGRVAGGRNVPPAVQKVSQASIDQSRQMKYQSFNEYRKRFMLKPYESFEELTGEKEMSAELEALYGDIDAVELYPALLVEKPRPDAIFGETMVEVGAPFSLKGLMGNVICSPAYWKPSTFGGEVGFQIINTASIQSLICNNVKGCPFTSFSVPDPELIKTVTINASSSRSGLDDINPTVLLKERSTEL
Assay: IC50 against recombinant human Prostaglandin G/H synthase 2
pIC50 listing for selected molecules.
The meaning of pIC50 here: minus log10 of the concentration in molar units.

As a guide, the following entries are already answered.
C=CCONC1=NC(=O)/C(=C/c2cc(C(C)(C)C)c(O)c(C(C)(C)C)c2)O1 = 4.59
CC(C)(C)c1cc(/C=C2\SC(NO)=NC2=O)cc(C(C)(C)C)c1O = 5.82
CC(C)(C)c1cc(/C=C2\NC(=S)NC2=O)cc(C(C)(C)C)c1O = 6.59

Request: Given the entry CON(C)C1=NC(=O)/C(=C/c2cc(C(C)(C)C)c(O)c(C(C)(C)C)c2)S1 , report its measured pIC50.
Result: 4.74

Request: Given the entry C=CCONC1=NC(=O)/C(=C/c2cc(C(C)(C)C)c(O)c(C(C)(C)C)c2)S1 , report its measured pIC50.
Result: 5.57

Request: Given the entry CC(C)(C)c1cc(/C=C2\SC(N=C(N)N)=NC2=O)cc(C(C)(C)C)c1O , report its measured pIC50.
Result: 4.68

Request: Given the entry CONC1=NC(=O)/C(=C/c2cc(C(C)C)c(O)c(C(C)C)c2)S1 , report its measured pIC50.
Result: 6.24

Request: Given the entry CC(C)(C)c1cc(/C=C2\SC(=S)NC2=O)cc(C(C)(C)C)c1O , report its measured pIC50.
Result: 5.82

Request: Given the entry CCONC1=NC(=O)/C(=C/c2cc(C(C)(C)C)c(O)c(C(C)(C)C)c2)S1 , report its measured pIC50.
Result: 5.49

Request: Given the entry CC(C)(C)c1cc(/C=C2\OC(=O)NC2=O)cc(C(C)(C)C)c1O , report its measured pIC50.
Result: 4.47

Request: Given the entry CC(C)c1cc(/C=C2\SC(N=C(N)N)=NC2=O)cc(C(C)C)c1O , report its measured pIC50.
Result: 5.74

Request: Given the entry CC(C)(C)c1cc(/C=C2\SC(NC#N)=NC2=O)cc(C(C)(C)C)c1O , report its measured pIC50.
Result: 4.26

Request: Given the entry CN1C(NC(=N)N)=NC(=O)/C1=C/c1cc(C(C)(C)C)c(O)c(C(C)(C)C)c1 , report its measured pIC50.
Result: 4.09

Request: Given the entry CC(C)(C)c1cc(/C=C2\SC(=O)NC2=O)cc(C(C)(C)C)c1O , report its measured pIC50.
Result: 5.33

* * *

Target: Prostaglandin G/H synthase 1 (Homo sapiens, UniProt P23219)
Sequence (P23219 whole entry): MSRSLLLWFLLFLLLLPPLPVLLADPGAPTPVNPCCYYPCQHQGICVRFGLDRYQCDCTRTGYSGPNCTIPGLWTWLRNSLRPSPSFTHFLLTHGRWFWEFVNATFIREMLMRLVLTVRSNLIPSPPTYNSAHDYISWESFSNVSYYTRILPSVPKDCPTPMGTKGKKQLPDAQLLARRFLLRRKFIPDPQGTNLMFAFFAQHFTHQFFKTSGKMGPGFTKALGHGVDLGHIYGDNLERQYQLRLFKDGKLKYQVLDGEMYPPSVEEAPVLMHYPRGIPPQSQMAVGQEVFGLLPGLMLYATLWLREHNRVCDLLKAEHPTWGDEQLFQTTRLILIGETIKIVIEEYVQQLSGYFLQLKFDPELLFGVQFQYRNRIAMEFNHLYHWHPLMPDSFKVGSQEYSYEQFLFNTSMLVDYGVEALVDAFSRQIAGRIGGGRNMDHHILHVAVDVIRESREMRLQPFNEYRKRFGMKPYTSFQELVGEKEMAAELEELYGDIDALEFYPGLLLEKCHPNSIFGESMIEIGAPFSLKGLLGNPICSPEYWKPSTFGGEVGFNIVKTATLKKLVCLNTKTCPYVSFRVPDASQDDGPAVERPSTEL
Experiment: IC50 against Prostaglandin G/H synthase 1 from human platelet rich plasma
Output MET for records whose IC50 is lower than 3 µM, NOT MET for records at or above 3 µM.

Request: For CC(C)(C)c1cc(/C=C2\SC(N=C(N)N)=NC2=O)cc(C(C)(C)C)c1O , is the recorded IC50 below the cut-off of 3 µM?
Result: MET

Request: For CC(C)c1cc(/C=C2\SC(N=C(N)N)=NC2=O)cc(C(C)C)c1O , is the recorded IC50 below the cut-off of 3 µM?
Result: MET

Request: For CON(C)C1=NC(=O)/C(=C/c2cc(C(C)(C)C)c(O)c(C(C)(C)C)c2)S1 , is the recorded IC50 below the cut-off of 3 µM?
Result: NOT MET

Request: For CC(C)(C)c1cc(/C=C2\SC(NO)=NC2=O)cc(C(C)(C)C)c1O , is the recorded IC50 below the cut-off of 3 µM?
Result: NOT MET

Request: For CSC1=NC(=O)/C(=C/c2cc(C(C)(C)C)c(O)c(C(C)(C)C)c2)O1 , is the recorded IC50 below the cut-off of 3 µM?
Result: NOT MET

Request: For CONC1=NC(=O)/C(=C/c2cc(C(C)C)c(O)c(C(C)C)c2)S1 , is the recorded IC50 below the cut-off of 3 µM?
Result: NOT MET
